- ASSAY: Clinical exposure of ranolazine (FDA documentation)
- Type: in vivo, human
- CONDITION_INFO: dose of 1000 mg b.i.d.; bracketed conversion; read-out: mean steady-state Cmax [in blood serum]
ENDPOINT_LABEL: Cmax

Lab book: Cmax of COc1ccccc1OCC(O)CN1CCN(CC(=O)Nc2c(C)cccc2C)CC1 (stereo not shown) noted as 6 µM

###

- ASSAY: Clinical exposure of ranolazine (FDA documentation)
- Format: in vivo, human
- CONDITION_INFO: human, serum; dose of 1000 mg b.i.d.; bracketed conversion; read-out: 95% of Cmax values
ENDPOINT_LABEL: Cmax

Lab note: measured Cmax of COc1ccccc1OCC(O)CN1CCN(CC(=O)Nc2c(C)cccc2C)CC1 (stereo not shown) [ranolazine] was 0.98 to 14.2 µM
